STUDY TARGET: human TOP1 (Homo sapiens, UniProt P11387)
Construct: made in house; host or cells: Saccharomyces cerevisiae TOP1 null strain RS190, plasmid pHT143 (GAL promoter)
Sequence (P11387 whole entry): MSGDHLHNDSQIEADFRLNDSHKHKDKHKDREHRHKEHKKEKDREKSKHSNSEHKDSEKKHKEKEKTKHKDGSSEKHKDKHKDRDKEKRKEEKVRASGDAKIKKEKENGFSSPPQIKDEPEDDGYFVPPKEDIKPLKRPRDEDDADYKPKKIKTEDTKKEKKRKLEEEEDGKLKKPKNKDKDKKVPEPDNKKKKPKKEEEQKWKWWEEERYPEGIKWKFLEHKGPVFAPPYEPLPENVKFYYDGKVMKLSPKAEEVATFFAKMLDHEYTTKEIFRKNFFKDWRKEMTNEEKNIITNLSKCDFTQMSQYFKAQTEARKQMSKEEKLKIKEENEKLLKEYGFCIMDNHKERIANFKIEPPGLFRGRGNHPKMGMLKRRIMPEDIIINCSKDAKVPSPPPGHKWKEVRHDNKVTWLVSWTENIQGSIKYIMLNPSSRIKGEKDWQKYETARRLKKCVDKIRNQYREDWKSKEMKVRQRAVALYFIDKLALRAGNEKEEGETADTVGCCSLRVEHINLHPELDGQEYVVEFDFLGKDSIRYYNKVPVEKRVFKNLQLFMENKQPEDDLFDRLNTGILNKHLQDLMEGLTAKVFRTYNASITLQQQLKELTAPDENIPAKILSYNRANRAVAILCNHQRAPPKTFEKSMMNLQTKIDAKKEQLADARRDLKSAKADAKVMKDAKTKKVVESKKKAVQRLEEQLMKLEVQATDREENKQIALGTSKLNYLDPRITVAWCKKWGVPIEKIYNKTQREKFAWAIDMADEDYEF
MEASUREMENT PROTOCOL: TOP1 supercoiled plasmid DNA relaxation assay
Format: biochemical
TEST CONDITIONS: 3 min reaction; compounds at 100 μM; semiquantitative
TEST READOUT: TOP1 Inhibition 3 min

# count of solved cases: 4
COMPOUND	TOP1 Inhibition 3 min
O=C1c2ccccc2-c2c1c(-c1ccc(C(F)(F)F)cc1)nc1ccc(P(=O)(c3ccccc3)c3ccccc3)cc21 [Compound 10b]	++
O=P(c1ccccc1)(c1ccccc1)c1ccc2nc(-c3cccc(F)c3)c3c(c2c1)-c1ccccc1C3 [Compound 9d]	+ (weak inhibition)
O=P(c1ccccc1)(c1ccccc1)c1ccc2c(c1)C1c3ccccc3CC1C(c1ccc(F)cc1F)N2 (stereo not shown) [Compound 8f]	+ (weak inhibition)
O=C1c2ccccc2-c2c1c(-c1ccc(F)c(F)c1)nc1ccc(P(=O)(c3ccccc3)c3ccccc3)cc21 [Compound 10e]	++

Give human TOP1 (Homo sapiens, UniProt P11387) TOP1 Inhibition 3 min for O=P(c1ccccc1)(c1ccccc1)c1ccc2c(c1)C1c3ccccc3CC1C(c1cccc3ccccc13)N2 (stereo not shown) [Compound 8g]
+ (weak inhibition)

What do we get for COc1ccc(-c2nc3ccc(P(=O)(c4ccccc4)c4ccccc4)cc3c3c2Cc2ccccc2-3)cc1 [Compound 9h] ?
++

What do we get for O=P(c1ccccc1)(c1ccccc1)c1ccc2c(c1)C1c3ccccc3CC1C(c1ccccc1)N2 (stereo not shown) [Compound 8a] ?
++

These data points were gathered from paper PMC11678328.
